Each entry below lists one item and its recorded MIC value.
test system: Pseudomonas aeruginosa CNUR 4; assay: MIC test, agar dilution with Steers multiwell inoculator; assay type: cell-based; conditions: CNUR4, TSA dishes, 24 h at 35°C, read-out: Minimum Inhibiting Concentration
Numeric only. Scale: µg/mL

Study these solved cases before continuing.
- CC1CN(c2cc3c(cc2N)c(=O)c(C(=O)O)cn3C2CC2)CCN1 (stereo not drawn) [Compound 14]: 64
- CN1CCN(c2c(N)c(N)c3c(=O)c(C(=O)O)cn(C4CC4)c3c2F)CC1 [Compound 28]: 64
- Nc1cc2c(=O)c(C(=O)O)cn(C3CC3)c2cc1N1CCCC1 [Compound 10]: 128
- CC(C)(C)n1cc(C(=O)O)c(=O)c2cc(N)c(N3CCSCC3)cc21 [Compound 46]: 128
- CC(C)(C)n1cc(C(=O)O)c(=O)c2cc(N)c(N3CCN(c4ccccn4)CC3)cc21 [Compound 48]: 128
- CN1CCN(c2cc3c(cc2N)c(=O)c(C(=O)O)cn3C(C)(C)C)CC1 [Compound 44]: 128

(Q) State the recorded MIC for this entry: CN1CCN(c2nc3c(cc2N)c(=O)c(C(=O)O)cn3C2CC2)CC1 [Compound 40]
(A) 64

---

test system: Escherichia coli ISF 432
observed_property: MIC (µg/mL)
Numeric only. Scale: µg/mL

- CN1CCN(c2c(F)cc3c(=O)c(C(=O)O)cn4c3c2SCC4)CC1 [RUFLOXACIN, reference compound]: 0.06
- Cc1c(N2CCN(C)CC2)c(N)cc2c(=O)c(C(=O)O)cn(C3CC3)c12 [Compound 33]: 0.03
- CN1CCN(c2nc3c(c(N)c2N)c(=O)c(C(=O)O)cn3C2CC2)CC1 [Compound 42]: 0.06
- Nc1cc2c(=O)c(C(=O)O)cn(C3CC3)c2cc1N1CCC(O)CC1 [Compound 16]: 0.03
- Cc1c(N2CCNCC2)c(N)cc2c(=O)c(C(=O)O)cn(C3CC3)c12 [Compound 34]: 0.06
- CC(C)(C)n1cc(C(=O)O)c(=O)c2cc(N)c(N3CCSCC3)cc21 [Compound 46]: 0.03
- CN1CCN(c2c(N)c(N)c3c(=O)c(C(=O)O)cn(C4CC4)c3c2F)CC1 [Compound 28]: 0.03
- Nc1cc2c(=O)c(C(=O)O)cn(C3CC3)c2cc1N1CCCC1 [Compound 10]: 0.25
- CN1CCN(c2nc3c(cc2N)c(=O)c(C(=O)O)cn3C2CC2)CC1 [Compound 40]: 0.03
- CN1CCN(c2cc3c(cc2N)c(=O)c(C(=O)O)cn3-c2ccc(F)cc2)CC1 [Compound 50]: 0.25

(Q) Find the measured MIC: item CC1CN(c2cc3c(cc2N)c(=O)c(C(=O)O)cn3C2CC2)CCN1 (centres unmarked) [Compound 14] , target or system Escherichia coli ISF 432.
(A) 0.03

(Q) Find the measured MIC: item CC1CN(c2cc3c(cc2N)c(=O)c(C(=O)O)cn3C2CC2)CC(C)N1 (centres unmarked) [Compound 11] , target or system Escherichia coli ISF 432.
(A) 0.03

---

system: Gram -; test: MIC test, average over the 15 gram-negative test germs; type: cell-based; conditions: 24 h; mean log of the MIC over the 15 Gram - strains; read-out: Log (converted)
Each entry below lists one item and its recorded log10 of MIC value.
Kindly note that the scale is log10 and the underlying MIC is in mg/L.

* CC1CN(c2cc3c(cc2N)c(=O)c(C(=O)O)cn3C2CC2)CC(C)N1 (stereo not shown) [Compound 11] | -0.12
* Nc1cc2c(=O)c(C(=O)O)cn(C3CC3)c2cc1N1CCC(O)CC1 [Compound 16] | 0.32
* CN1CCN(c2nc3c(cc2N)c(=O)c(C(=O)O)cn3C2CC2)CC1 [Compound 40] | -0.33
* Cc1c(N2CCNCC2)c(N)cc2c(=O)c(C(=O)O)cn(C3CC3)c12 [Compound 34] | -0.29
* CN1CCN(c2c(F)cc3c(=O)c(C(=O)O)cn4c3c2SCC4)CC1 [RUFLOXACIN, reference compound] | 0.12

(Q) State the recorded log10 of MIC for this entry: Cc1c(N2CCN(C)CC2)c(N)cc2c(=O)c(C(=O)O)cn(C3CC3)c12 [Compound 33]
(A) -0.47

(Q) State the recorded log10 of MIC for this entry: Nc1cc2c(=O)c(C(=O)O)cn(-c3ccc(F)cc3)c2cc1N1CCSCC1 [Compound 51]
(A) 0.48

(Q) State the recorded log10 of MIC for this entry: Nc1cc2c(=O)c(C(=O)O)cn(C3CC3)c2cc1N1CCCC1 [Compound 10]
(A) 1.12

(Q) State the recorded log10 of MIC for this entry: CN1CCN(c2c(N)cc3c(=O)c(C(=O)O)cn(C4CC4)c3c2F)CC1 [Compound 22]
(A) -0.11

(Q) State the recorded log10 of MIC for this entry: Nc1cc2c(=O)c(C(=O)O)cn(C3CC3)c2cc1N1CCSCC1 [Compound 15]
(A) -0.13

(Q) State the recorded log10 of MIC for this entry: Cc1c(N2CCc3ccccc3C2)c(N)cc2c(=O)c(C(=O)O)cn(C3CC3)c12 [Compound 36]
(A) 0.60

(Q) State the recorded log10 of MIC for this entry: CN1CCN(c2nc3c(c(N)c2N)c(=O)c(C(=O)O)cn3C2CC2)CC1 [Compound 42]
(A) 0.14

(Q) State the recorded log10 of MIC for this entry: Cc1c(N2CCSCC2)c(N)cc2c(=O)c(C(=O)O)cn(C3CC3)c12 [Compound 35]
(A) -0.06

(Q) State the recorded log10 of MIC for this entry: Nc1cc2c(=O)c(C(=O)O)cn(C3CC3)c2c(F)c1N1CCSCC1 [Compound 23]
(A) 0.02

(Q) State the recorded log10 of MIC for this entry: CN1CCN(c2cc3c(cc2N)c(=O)c(C(=O)O)cn3C(C)(C)C)CC1 [Compound 44]
(A) 0.24

(Q) State the recorded log10 of MIC for this entry: CN1CCN(c2c(N)c(N)c3c(=O)c(C(=O)O)cn(C4CC4)c3c2F)CC1 [Compound 28]
(A) -0.23

---

Tested on: Staphylococcus epidermidis CPHL A2
Assay: MIC test, agar dilution with Steers multiwell inoculator
Type: cell-based
Details: CPHLA2, TSA dishes, 24 h at 35°C, read-out: Minimum Inhibiting Concentration
Protocol: As to the antibacterial activity, there was determined the Least (Minimum) Inhibiting Concentration (MIC), by working according to the following operative conditions. There were used suspensions of test germs (5 gram-positive and 15 gram-negative) having a known titre, kept freezed at -80°C and diluted, at the time of use, in peptonized water up to a concentration of 1-2.10⁷ cfu/ml. […]
observed_property: MIC (µg/mL)
Numeric only. Scale: µg/mL

Study these solved cases before continuing.
• Cc1c(N2CCSCC2)c(N)cc2c(=O)c(C(=O)O)cn(C3CC3)c12 [Compound 35] = 0.5
• CN1CCN(c2cc3c(cc2N)c(=O)c(C(=O)O)cn3C(C)(C)C)CC1 [Compound 44] = 2

(Q) State the recorded MIC for this entry: CN1CCN(c2c(N)c(N)c3c(=O)c(C(=O)O)cn(C4CC4)c3c2F)CC1 [Compound 28]
(A) 4

(Q) State the recorded MIC for this entry: Cc1c(N2CCc3ccccc3C2)c(N)cc2c(=O)c(C(=O)O)cn(C3CC3)c12 [Compound 36]
(A) 1

(Q) State the recorded MIC for this entry: CC1CN(c2cc3c(cc2N)c(=O)c(C(=O)O)cn3C2CC2)CC(C)N1 (stereo not drawn) [Compound 11]
(A) 2

(Q) State the recorded MIC for this entry: Nc1cc2c(=O)c(C(=O)O)cn(C3CC3)c2cc1N1CCC(O)CC1 [Compound 16]
(A) 2

(Q) State the recorded MIC for this entry: CC(C)(C)n1cc(C(=O)O)c(=O)c2cc(N)c(N3CCN(c4ccccn4)CC3)cc21 [Compound 48]
(A) 1

(Q) State the recorded MIC for this entry: Nc1cc2c(=O)c(C(=O)O)cn(-c3ccc(F)cc3)c2cc1N1CCc2ccccc2C1 [Compound 52]
(A) 2

(Q) State the recorded MIC for this entry: Nc1cc2c(=O)c(C(=O)O)cn(C3CC3)c2cc1N1CCSCC1 [Compound 15]
(A) 1

(Q) State the recorded MIC for this entry: Cc1c(N2CCNCC2)c(N)cc2c(=O)c(C(=O)O)cn(C3CC3)c12 [Compound 34]
(A) 1

---

// endpoint MIC / system Escherichia coli ISF 432
Numeric only. Scale: µg/mL

• Cc1c(N2CCc3ccccc3C2)c(N)cc2c(=O)c(C(=O)O)cn(C3CC3)c12 = 0.25
• Nc1cc2c(=O)c(C(=O)O)cn(-c3ccc(F)cc3)c2cc1N1CCSCC1 = 0.03
• CN1CCN(c2cc3c(cc2N)c(=O)c(C(=O)O)cn3C(C)(C)C)CC1 = 0.06

(Q) State the recorded MIC for this entry: `CC(C)(C)n1cc(C(=O)O)c(=O)c2cc(N)c(N3CCc4ccccc4C3)cc21`
(A) 0.12
